Reported log10 of IC50 values for a set of binders
- targetOrTestSystem: HLA-A2.1 (heavy chain with human beta 2-microglobulin) (human)
- assayOverview: competition with 5 nM radiolabeled HBc18-27 for HLA-A2.1 + b2m, gel filtration
Heads up, the numbers here are log10 of IC50 in nM units.

Illustrative cases are given below, each with its answer.
> print(dat)
                                     binder  measuredresult
1  LLWGQYWQV (modifications not checked) [G9-154-1L2L]            0.20
2  ILSQVPFSV (modifications not checked) [G9-209-2L3S]            1.30
3  ITMQVPFSV (modifications not checked) [G9-209-3M]            1.60
4  WTWGQYWQV (modifications not checked) [G9-154-1W]            1.78
5  KIWGQYWQV (modifications not checked) [G9-154-2I]            0.48
6  KLWGQYWQV (modifications not checked) [G9-154-2L]            0.30
7  KTFGQYWQV (modifications not checked) [G9-154-3F]            1.32
8  KTYGQYWQV (modifications not checked) [G9-154-3Y]            1.48
9  YLWGQYWQV (modifications not checked) [G9-154-1Y2L]            0.23

Now for another entry.
Ask | Return reported log10 of IC50; argument: ILYQVPFSV (modifications not checked) [G9-209-2L3Y]
Reply | 0.70
